From: patent US10106542B2

Where a name gives a salt, the structure may show the parent alone.
measurement.kind: melting point (°C)

Here are 8 compounds together with their reported answers.
compound	unit.text	number
Cc1cc(N2C[C@H](C)n3ncc(-c4ccnc(NC(C)C)c4)c3C2=O)ccc1C(F)(F)F	°C	131.3
COc1cc(N2C[C@H](C)n3ncc(-c4cc(C)nc(C)c4)c3C2=O)ccc1C(F)(F)F	°C	93
CCOc1cc(N2C[C@H](C)n3ncc(-c4ccnc(C)c4)c3C2=O)ccc1Cl	°C	98.5
Cc1cc(-c2cnn3c2C(=O)N(c2ccc(C4(C(F)(F)F)CC4)cc2)C[C@@H]3C)ccn1	°C	126.2
Cc1cc(-c2cnn3c2C(=O)N(c2ccc(C(F)(F)F)cc2)CC3C(C)O)ccn1 (stereo not shown)	°C	255.5
C[C@H]1CN(c2ccc(C(F)(F)F)c(F)c2)C(=O)c2c(-c3ccncc3)cnn21	°C	163.8
Cc1cc(-c2cnn3c2C(=O)N(c2ccc(C(F)(F)F)c(Cl)n2)C[C@@H]3C)ccn1	°C	161.4
Cc1cc(-c2cnn3c2C(=O)N(c2cc(Cl)cc(Cl)c2)C[C@@H]3C)ccn1	°C	71.5

1. CC(C)Oc1cc(-c2cnn3c2C(=O)N(c2ccc(Cl)c(Cl)c2)C[C@@H]3C)ccn1 (as salt: HCl)
2. Cc1cc(-c2cnn3c2C(=O)N(c2ccc(OCC(F)(F)F)cc2)C[C@@H]3C)ccn1
IN: Rank 1 against 2 by their melting point values and give the higher one. Output the label that corresponds to your choice.
OUT: 1
(1: 193.8 °C, 2: 129.5 °C)

1. C[C@H]1CN(c2ccc(Cl)c(Cl)c2)C(=O)c2c(-c3ccnc(F)c3)cnn21
2. C[C@H]1CN(c2ccc(C(F)(F)F)cc2)C(=O)c2c(-c3ccc(N)nc3)cnn21
IN: Rank 1 against 2 by their melting point values and give the higher one. Output the label that corresponds to your choice.
OUT: 2
(2: 254 °C, 1: 170.3 °C)
